// data source = ChEMBL document CHEMBL3880435

Experiment: Hepatic extraction ratio in human liver microsomes at 1 uM in presence of NADPH by LC-MS/MS method
Format: ADME
Conditions: read-out: ERH

SMILES STRING | hepatic extraction ratio at 1 µM
COC(=O)N[C@@H](C)CNc1nccc(-c2cn(C(C)C)nc2-c2cccc(NS(C)(=O)=O)c2F)n1 | < 0.31

----------
# reported pIC50; entries follow
Biological target: Serine/threonine-protein kinase B-raf (Homo sapiens, UniProt P15056, V600E)
Sequence (P15056 2-766 V600E limits assumed): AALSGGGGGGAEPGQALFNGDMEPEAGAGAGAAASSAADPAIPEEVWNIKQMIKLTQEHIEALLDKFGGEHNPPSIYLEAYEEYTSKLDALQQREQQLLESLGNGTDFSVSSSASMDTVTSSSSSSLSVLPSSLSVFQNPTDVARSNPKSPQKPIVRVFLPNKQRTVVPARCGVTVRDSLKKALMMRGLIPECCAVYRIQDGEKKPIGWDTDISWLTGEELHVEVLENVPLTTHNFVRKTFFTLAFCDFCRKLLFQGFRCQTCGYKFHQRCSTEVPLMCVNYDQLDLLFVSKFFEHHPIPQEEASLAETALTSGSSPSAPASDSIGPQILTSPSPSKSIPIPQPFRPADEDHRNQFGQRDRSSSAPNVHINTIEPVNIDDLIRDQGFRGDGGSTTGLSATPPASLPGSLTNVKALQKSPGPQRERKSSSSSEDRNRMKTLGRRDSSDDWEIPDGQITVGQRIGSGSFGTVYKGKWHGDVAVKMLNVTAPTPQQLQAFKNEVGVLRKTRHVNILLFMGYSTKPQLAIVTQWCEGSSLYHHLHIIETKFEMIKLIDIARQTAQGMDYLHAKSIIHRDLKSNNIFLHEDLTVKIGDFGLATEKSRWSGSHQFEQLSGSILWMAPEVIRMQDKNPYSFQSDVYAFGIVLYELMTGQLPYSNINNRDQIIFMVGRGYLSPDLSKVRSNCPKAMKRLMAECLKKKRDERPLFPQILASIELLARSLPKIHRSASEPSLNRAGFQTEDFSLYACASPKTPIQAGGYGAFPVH
Assay: Inhibition of B-Raf V600E mutant (unknown origin) using biotinylated Mek substrate incubated for 60 mins by amplified luminescence proximity homogeneous assay
pIC50: −log10 of the molar value.

SMILES STRING | pIC50
COC(=O)N[C@@H](C)CNc1nccc(-c2cn(C(C)C)nc2-c2cc(C)cc(NS(C)(=O)=O)c2F)n1 | 9.02
COC(=O)N[C@@H](C)CNc1nccc(-c2cn(C(C)C)nc2-c2cc(C)cc(NS(C)(=O)=O)c2Cl)n1 | 9.00
